Measured protein stability index, listed per entry for reference.
test system: Saccharomyces cerevisiae; assay: protein stability index of tFT-peptide fusion (C-terminal peptide) (PSI (0-1 scale)); higher = more stable (slower turnover); details: genetic background: wild type; temperature: 30 C;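 note: PSI is a weighted mean of sequencing reads over stability bins, variants kept only with over 10 reads, mCherry proximal and sfGFP distal, peptide attached via GGGS linker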
Please state the value as a number alone, without comment.

- INPUT SEQUENCE: "PPPPTLPPPPLS"
  protein stability index: 0.722
- INPUT SEQUENCE: "EVERKNKESGKI"
  protein stability index: 0.717
- INPUT SEQUENCE: "LRTKRGKREEYD"
  protein stability index: 0.73
- INPUT SEQUENCE: "SGIKGENKIKEK"
  protein stability index: 0.681
- INPUT SEQUENCE: "PPPGPNPPSSPS"
  protein stability index: 0.758

Just so you know, measured protein stability index for `KKLNKNKSKINR` came out at 0.683

Just so you know, measured protein stability index for `GKTITNENPKGH` came out at 0.705

Just so you know, measured protein stability index for `PGLRSQQLIAPI` came out at 0.652

Just so you know, measured protein stability index for `FGVVLEGAGGGG` came out at 0.702

Just so you know, measured protein stability index for `FSSRVFLIVGIY` came out at 0.427

FYI, the data here is from the supplement of paper PMC10724198.
